- target_under_test: Beta-2 adrenergic receptor (Cavia porcellus)
- Sequence (Q8K4Z4 whole entry): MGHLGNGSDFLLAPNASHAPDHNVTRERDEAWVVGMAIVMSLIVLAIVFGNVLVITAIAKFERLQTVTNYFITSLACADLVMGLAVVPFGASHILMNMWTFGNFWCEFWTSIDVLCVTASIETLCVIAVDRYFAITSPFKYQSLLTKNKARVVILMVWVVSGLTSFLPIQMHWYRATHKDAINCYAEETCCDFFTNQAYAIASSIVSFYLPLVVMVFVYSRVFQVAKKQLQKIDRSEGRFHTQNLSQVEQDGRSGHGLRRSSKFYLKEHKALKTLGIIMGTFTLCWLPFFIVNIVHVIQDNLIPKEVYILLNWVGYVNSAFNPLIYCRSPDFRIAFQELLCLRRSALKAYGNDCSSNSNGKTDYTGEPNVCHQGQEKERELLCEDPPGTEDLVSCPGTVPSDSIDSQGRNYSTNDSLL
- method: Agonist activity at beta2 adrenoceptor in guinea pig tracheal rings assessed as relaxation of tracheal smooth muscle
pEC50: −log10 of the molar value.
measured_endpoint: pEC50

Prompt: Please provide the recorded pEC50 for O=C(Nc1cccc(CCNCC(O)c2ccc(O)c3[nH]c(=O)ccc23)c1)Nc1cccc(Oc2ccccc2)c1 (centres undefined) , tested on Beta-2 adrenergic receptor (Cavia porcellus).
Response: 9.00

(I) O=C(NCC12CC3CC(CC(C3)C1)C2)Nc1cccc(CCNCC(O)c2ccc(O)c3[nH]c(=O)ccc23)c1 (centres undefined)
(II) O=C(NCc1c(Cl)cccc1Cl)Nc1cccc(CCNCC(O)c2ccc(O)c3[nH]c(=O)ccc23)c1 (centres undefined)
Prompt: // which entry reports the smaller pEC50, I or II ? # respond with the chosen item's label
Response: I
(I: 8.49, II: 9.70)
